- TARGET UNDER TEST: human BACE1 ECD; also: test concentration or dose not given here
- Sequence (single chain, as listed by the source limits assumed): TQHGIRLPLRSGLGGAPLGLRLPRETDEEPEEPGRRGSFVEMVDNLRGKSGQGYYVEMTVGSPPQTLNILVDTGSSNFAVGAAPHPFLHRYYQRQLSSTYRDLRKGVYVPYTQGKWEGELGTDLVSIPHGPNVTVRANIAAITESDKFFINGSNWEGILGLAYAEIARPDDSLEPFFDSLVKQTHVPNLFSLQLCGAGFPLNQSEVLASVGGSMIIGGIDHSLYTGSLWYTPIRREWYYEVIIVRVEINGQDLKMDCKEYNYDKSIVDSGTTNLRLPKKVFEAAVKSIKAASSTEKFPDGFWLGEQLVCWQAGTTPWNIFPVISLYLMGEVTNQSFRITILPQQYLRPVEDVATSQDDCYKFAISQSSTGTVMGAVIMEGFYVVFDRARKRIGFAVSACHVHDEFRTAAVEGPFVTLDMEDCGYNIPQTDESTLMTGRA
- METHOD: cell-based or functional assay
In this section, each of the binders is paired with its reported % inhibition of BACE1 activity, short FRET substrate.
A bare number is not enough; add the unit after it.

BINDER	OBSERVED VALUE
5572 (antibody, V domains shown, anti-BACE1 IgG) VH: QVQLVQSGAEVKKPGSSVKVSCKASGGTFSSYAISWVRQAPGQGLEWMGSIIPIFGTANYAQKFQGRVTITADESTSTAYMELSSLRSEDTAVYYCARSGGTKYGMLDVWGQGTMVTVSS VL: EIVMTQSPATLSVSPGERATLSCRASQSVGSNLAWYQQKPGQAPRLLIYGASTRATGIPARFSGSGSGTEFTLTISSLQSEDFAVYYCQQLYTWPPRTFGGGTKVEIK	75%

As a next step, examine the binder that follows.
Prompt line: Give a short answer stating reported % inhibition of BACE1 activity, short FRET substrate for 5644 (antibody, V domains shown, anti-BACE1 IgG) VH: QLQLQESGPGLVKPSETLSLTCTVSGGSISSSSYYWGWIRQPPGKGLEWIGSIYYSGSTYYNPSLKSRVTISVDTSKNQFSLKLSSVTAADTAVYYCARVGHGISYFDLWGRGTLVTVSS VL: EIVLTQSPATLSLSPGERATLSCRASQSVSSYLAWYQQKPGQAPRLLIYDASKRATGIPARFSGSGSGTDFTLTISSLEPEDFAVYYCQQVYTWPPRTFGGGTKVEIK .
Response line: 65%
